- TARGET_OR_TEST_SYSTEM: T1, mouse IL-12Rβ2 (mouse, UniProt P97378 24-874)
- T1 construct: Expressed on HEK293T cells transiently transfected with a pcDNA3 plasmid (Genscript clone OMu01776); also called mIL-12RB2; NP_032380.1
- T1 sequence: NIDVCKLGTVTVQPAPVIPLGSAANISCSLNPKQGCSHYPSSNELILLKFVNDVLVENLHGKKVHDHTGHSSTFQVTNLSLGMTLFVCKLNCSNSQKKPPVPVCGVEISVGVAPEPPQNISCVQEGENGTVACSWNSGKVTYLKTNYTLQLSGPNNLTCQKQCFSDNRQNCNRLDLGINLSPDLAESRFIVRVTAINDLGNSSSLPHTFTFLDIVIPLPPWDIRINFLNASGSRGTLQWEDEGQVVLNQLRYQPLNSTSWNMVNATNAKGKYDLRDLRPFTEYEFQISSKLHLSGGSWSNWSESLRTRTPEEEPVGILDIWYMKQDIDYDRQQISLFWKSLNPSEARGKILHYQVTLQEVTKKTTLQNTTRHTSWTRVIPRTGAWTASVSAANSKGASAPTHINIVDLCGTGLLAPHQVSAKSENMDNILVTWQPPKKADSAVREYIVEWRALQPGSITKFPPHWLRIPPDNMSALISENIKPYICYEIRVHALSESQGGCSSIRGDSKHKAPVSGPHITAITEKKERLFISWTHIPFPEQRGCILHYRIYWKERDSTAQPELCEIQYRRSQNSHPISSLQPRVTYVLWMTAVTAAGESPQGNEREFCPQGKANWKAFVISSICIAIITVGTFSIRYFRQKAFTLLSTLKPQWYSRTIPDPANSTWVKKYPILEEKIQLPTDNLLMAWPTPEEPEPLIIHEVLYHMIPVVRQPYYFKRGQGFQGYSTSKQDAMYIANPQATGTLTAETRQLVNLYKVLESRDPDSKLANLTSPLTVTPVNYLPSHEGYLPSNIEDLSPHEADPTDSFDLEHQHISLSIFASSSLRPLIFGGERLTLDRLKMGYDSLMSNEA
- ASSAY_EXPLANATION: flow cytometry, P.E. on transfected HEK293T cells
Could you please classify the records by dMFI using these ranges: low class (below 100), middle class (100 to below 400), high class (400 or more)

Worked set:
BINDER	CLASS_NAME
anti-IL-12Rβ2 VHH clone 3CAHM40 (VHH, not shown: small tags and cut ends, periplasmic extract) VHH: QVQLQESGGGSVQAGGSLRLSCAVSGRTVSDYAMGWFRQAPGKEREFVAAMSSSETTVYPNSMKGRITISRDNAKNAVYLQLNALKPEDTAVYYCSMGPIATFQGLARQNEYHYWGQGTQVTVSS	middle class
anti-IL-12Rβ2 VHH clone 3CRHM99 (VHH, not shown: small tags and cut ends, periplasmic extract; also called 21062) VHH: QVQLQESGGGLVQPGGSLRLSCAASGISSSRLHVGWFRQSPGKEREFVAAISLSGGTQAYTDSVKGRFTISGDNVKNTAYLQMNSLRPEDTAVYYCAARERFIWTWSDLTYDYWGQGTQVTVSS	middle class
anti-IL-12Rβ2 VHH clone 3CRHM20 (VHH, not shown: small tags and cut ends, periplasmic extract; also called 21055) VHH: QVQLQESGGGLVQAGGSLRLSCAASGRTFSKSTMGWFRQTPGKEREFVAAITWTDTEVYANSVKDRFTISRDNAKNTFYLQMHSLKLEDTAVYYCAGDRYGSSRDSVFSSPTNYPYWGQGTQVTVSS	low class
anti-IL-12Rβ2 VHH clone 3CRHM133 (VHH, not shown: small tags and cut ends, periplasmic extract; also called 21063) VHH: QVQLQESGGGSVQAGGSLRLSCAVSGRPVSDYAMGWFRQAPGKEREFVAALSASDTTVYPNSVKGRITISRDNAKNAVDLQMNALKPEDTAVYYCAMGPIGTFQGLARQNEYHYWGQGTQVTVSS	middle class

QUERY: Using the reported dMFI, which band applies to anti-IL-12Rβ2 VHH clone 3CRHM73 (VHH, not shown: small tags and cut ends, periplasmic extract; also called 21060) VHH: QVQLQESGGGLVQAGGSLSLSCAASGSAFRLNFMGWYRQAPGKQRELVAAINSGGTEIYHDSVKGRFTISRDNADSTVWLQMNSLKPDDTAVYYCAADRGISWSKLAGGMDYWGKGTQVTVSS ?
RESULT: middle class

QUERY: Using the reported dMFI, which band applies to anti-IL-12Rβ2 VHH clone 3CRHM18 (VHH, not shown: small tags and cut ends, periplasmic extract) VHH: QVQLQESGGGLVQDGGSLRLSCAASGRTFSNYAMAWFRQAPGTEREFVAGLSGSGGDTAFYDNSVMGRFTISRDSAKNTMWLQINNLKPEDTAVYYCAAATHVVVSYGLVRKRGTYDYWGQGTQVTVSS ?
RESULT: middle class

QUERY: Using the reported dMFI, which band applies to anti-IL-12Rβ2 VHH clone 3CAHM11 (VHH, not shown: small tags and cut ends, periplasmic extract) VHH: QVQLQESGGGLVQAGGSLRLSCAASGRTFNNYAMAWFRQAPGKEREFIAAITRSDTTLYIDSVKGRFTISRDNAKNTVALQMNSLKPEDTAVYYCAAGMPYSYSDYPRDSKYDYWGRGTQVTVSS ?
RESULT: middle class

Origin of the recorded values: patent US20260209362A1
